Tested on: BDF1 mice, P388 leukemia ip, median survival T/C
Test: NCI In Vivo Anticancer Drug Screen. Data for tumor model P388 Leukemia (intraperitoneal) in B6D2F1 (BDF1) mice
Settings: endpoint: median survival time; dose: 100.0 mg/kg/injection; schedule: Q04DX003 (ip); vehicle: saline with Tween-80; higher = longer survival
Method: The antitumor activity of compounds was measured in mice bearing transplantable tumors. Survival or tumor size were measured and the results are expressed as the measurement made in the treated group (T) divided by the measurement made in the vehicle treated control group (C). The tumor model used in this assay is P388 Leukemia (intraperitoneal) in B6D2F1 (BDF1) mice
Inconclusive results and toxic doses are left out.
MEASURED PARAMETER: T/C

- MOLECULE: "CCOC(=O)C(C#N)c1cccc(C)c1 (centres undefined)"
  TESTED SYSTEM: "BDF1 mice, P388 leukemia ip, median survival T/C"
  OBSERVED: "100 % of control"

// for each molecule in input: emit T/C
1. Cc1ccc(-c2nn3c(-c4ccccc4)nnc3o2)cc1
2. O=C(O)CNC(=O)Nc1ccccc1
3. CC(C)=CC(=O)CC(O)(C(F)(F)F)C(F)(F)Cl (centres undefined)
4. CN(C)C(=O)c1cccc(NCc2ccc3nc(N)nc(N)c3c2)c1
5. CCOC(=O)C(C(=O)OCC)=C(C)OCC
6. Cc1c2cnccc2c(C)c2c1c1ccccc1n2CCNCCO
7. CCOC(=O)CCC(C(=O)OCC)C(=O)OCC

**A:**
["110 % of control", "100 % of control", "109 % of control", "100 % of control", "90 % of control", "118 % of control", "91 % of control"]

// for each molecule in input: emit T/C
1. CCCCN(C(=O)C(F)(F)F)C(C)(C)C(SSSC(c1ccc(Cl)cc1)C(C)(C)N(CCCC)C(=O)C(F)(F)F)c1ccc(Cl)cc1 (centres undefined)
2. COC(OC)c1nc(SC)[nH]c(=O)c1C[N+](C)(C)C
3. c1ccc2cc3c(cc2c1)Nc1cc2ccccc2cc1N3
4. CC(=O)CSc1nc2nccnc2[nH]1
5. CC1=CCCC(C)C12CCC(C(C)(C)O)C2 (centres undefined)

**A:**
1. 100 % of control
2. 100 % of control
3. 100 % of control
4. 97 % of control
5. 100 % of control

// for each molecule in input: emit T/C
1. CC(=O)O[C@H]1CC[C@H]2[C@@H]3CCC4=CC(=O)CC[C@]4(C)[C@H]3[C@H](OC(C)=O)C[C@]12C
2. CCC(C)SC1=NC=NC2=NC=NC21 (centres undefined)

**A:**
1: 100 % of control; 2: 91 % of control

// for each molecule in input: emit T/C
1. O=C(O)c1cc2ccccc2c2cc(Br)ccc12
2. CCCCCCCCC(=O)N(C)OC
3. COc1cc(/C=N/NC(N)=S)cc(OC)c1OC
4. Nc1ccc(Oc2ccc(Cl)cc2)c(Cl)c1

**A:**
1. 100 % of control
2. 100 % of control
3. 90 % of control
4. 100 % of control

###

system: BDF1 mice, P388 leukemia ip, median survival T/C; experiment: NCI In Vivo Anticancer Drug Screen. Data for tumor model P388 Leukemia (intraperitoneal) in B6D2F1 (BDF1) mice; details: endpoint: median survival time; dose: 50.0 mg/kg/injection; schedule: Q01DX009 (ip); vehicle: Klucel (hydroxypropylcellulose) (HPC); higher = longer survival
Toxic doses and inconclusive results are not listed.
MEASURED PARAMETER: T/C

Example results:
- COMPOUND: "O=Cc1ccc(/C=C2\\NC(=O)NC2=O)cc1"
  T/C: "92 % of control"
- COMPOUND: "O=S(=O)(NC(=S)Nc1ccc(Cl)cc1)c1ccccc1"
  T/C: "113 % of control"
- COMPOUND: "CC1CCCC/C1=N/NC(N)=O (centres undefined)"
  T/C: "91 % of control"
- COMPOUND: "CCN(C(=O)C(F)(F)F)C(C)(C)C(SSSC(c1ccc(Cl)cc1)C(C)(C)N(CC)C(=O)C(F)(F)F)c1ccc(Cl)cc1 (centres undefined)"
  T/C: "120 % of control"
- COMPOUND: "ClCC#Cc1ccccc1"
  T/C: "100 % of control"

// for each compound in input: emit T/C
1. CCNc1nc(Cl)nc(-c2cn(-c3ccccc3)c3ccccc23)n1
2. O=S1(=O)CCN(C2CCCCCCCCCCC2)CC1
3. COC(CC(C)CCCC(C)(C)O)OC (centres undefined)
4. Nc1nc(=S)c2[nH]c(N=Nc3ccc(S(=O)(=O)Nc4ncccn4)cc3)nc2[nH]1
5. CN(C)c1ccc(C=O)cc1Br
6. O=S(=O)(OCC#CCOS(=O)(=O)c1ccc(Cl)c(Cl)c1)c1ccc(Cl)c(Cl)c1
7. Clc1ccc(NC2=NCCN=C(Nc3ccc(Cl)cc3)SS2)cc1
8. COC(=O)C1(Br)CCC1(Br)C(=O)OC (centres undefined)

**A:**
1: 86 % of control; 2: 108 % of control; 3: 110 % of control; 4: 118 % of control; 5: 95 % of control; 6: 87 % of control; 7: 91 % of control; 8: 100 % of control

**Q:** Provide one value: measured T/C of CC(C)=NOC(=O)Nc1ccc(Cl)cc1
**A:** 118 % of control
